Numbers sourced from PubChem BioAssay (NCI).

For each entry below, report its GI50 value.
- System: 786-0 renal
- procedure details: NCI tumour cell line growth inhibition, 48 h
Non-standard residues stand in square brackets, D forms with d. Residues, ends and D or L forms follow the SMILES beside them. *: point of attachment. ONb = O=[N+]([O-])c1ccc(CO*)cc1; AllylGly = C=CC[CH](N)C(=O)O; Boc = CC(C)(C)OC(=O)*

A selection of reference data follows.
N#Cc1c(Sc2ccccc2N)cccc1Sc1ccccc1N
37800 nM
Cc1ccc(CNc2c3ccccc3nc3ccccc23)cc1
1950 nM
C=CCC(NC(=O)OC(C)(C)C)C(=O)NC(CCC(=O)OCc1ccc([N+](=O)[O-])cc1)C(N)=O (centres undefined) (Boc-[AllylGly]-Glu(ONb)-NH2; configuration not given here)
21.9 µg/mL
COC(=O)N[C@H]1CCc2c(Br)c(OC)c(OC)c(OC)c2-c2ccc(SC)c(=O)cc21
< 16.3 nM
COc1nc(N(C)O)nc(N(C)O)n1
3740 nM
C=C1C(=O)O[C@H]2[C@H]1CC/C(COC(=O)c1cc3cc(F)ccc3[nH]1)=C\CC[C@@]1(C)O[C@@H]21
1780 nM

Batch of 3 compounds: report GI50 for each.
1. CCOC(=O)c1ccc(NC(=O)N2CC(C)OC(C)C2)cc1 (centres undefined)
2. O=C(Oc1ccc(Cl)cc1Cl)c1ccccc1Nc1ccnc(C(F)(F)F)c1
3. C=C1CC2(OC1=O)C(=O)N(CCCCCCCN1C(=O)C3(CC(=C)C(=O)O3)c3ccccc31)c1ccccc12 (centres undefined)

Response:
1: > 100000 nM; 2: 1930 nM; 3: 1490 nM
